The measured values listed here are drawn from patent US10118918B2.

Test system: symmetric di-methyl arginine in Z-138 cells
assayRemarks: Z-138 Methylation Assay (In Cell Western for symmetric di-methyl arginine and DNA content)
Format: cell-based
conditionSummary: Homo sapiens, 96 hours incubation, read-out: ICW EC50
Protocol: [formula] Where top and bottom are the normally allowed to float, but may be fixed at 100 or 0 respectively in a 3-parameter fit. The Hill Coefficient normally allowed to float but may also be fixed at 1 in a 3-parameter fit. Y is the % inhibition and X is the compound concentration. Z-138 Methylation Assay Z-138 suspension cells were purchased from ATCC (American Type Culture Collection, Manassas, Va.). […] First, the ratio for each well was determined by: […]
pEC50: −log10 of the molar value.
measuredAttribute: pEC50

[
  {
    "molecule": "O=C(CCc1nc2ccccc2[nH]1)NCC(O)CN1Cc2ccccc2C1 (centres unmarked) [compound 37]",
    "targetOfAssay": "symmetric di-methyl arginine in Z-138 cells",
    "measuredAttribute": "pEC50",
    "result": "6.00 to 7.00"
  },
  {
    "molecule": "CC(=O)N1CC(Nc2cc(C(=O)NC[C@H](O)CN3CCCCc4ccccc43)ncn2)C1 [compound 46]",
    "targetOfAssay": "symmetric di-methyl arginine in Z-138 cells",
    "measuredAttribute": "pEC50",
    "result": "< 6.00"
  },
  {
    "molecule": "O=C(NC[C@H](O)CN1Cc2ccccc2C1)c1cccc(NC2CCOCC2)c1 [compound 28]",
    "targetOfAssay": "symmetric di-methyl arginine in Z-138 cells",
    "measuredAttribute": "pEC50",
    "result": "6.00 to 7.00"
  },
  {
    "molecule": "CC(=O)N1CCC(Nc2cc(C(=O)NC[C@H](O)CN3CCc4ccccc43)ncn2)CC1 [compound 43]",
    "targetOfAssay": "symmetric di-methyl arginine in Z-138 cells",
    "measuredAttribute": "pEC50",
    "result": "< 6.00"
  },
  {
    "molecule": "O=C(NC[C@H](O)CN1Cc2ccccc2C1)c1cncc(NC2CCNC2)c1 (some centres unmarked) [compound 32]",
    "targetOfAssay": "symmetric di-methyl arginine in Z-138 cells",
    "measuredAttribute": "pEC50",
    "result": "5.00 to 6.00"
  },
  {
    "molecule": "O=C(COc1cccc2cccnc12)NC[C@H](O)CN1Cc2ccccc2C1 [compound 4]",
    "targetOfAssay": "symmetric di-methyl arginine in Z-138 cells",
    "measuredAttribute": "pEC50",
    "result": "6.00 to 7.00"
  },
  {
    "molecule": "O=C(NC[C@H](O)CN1Cc2ccccc2C1)c1cc(NC2CCOCC2)ncn1 [compound 29]",
    "targetOfAssay": "symmetric di-methyl arginine in Z-138 cells",
    "measuredAttribute": "pEC50",
    "result": "6.00 to 7.00"
  },
  {
    "molecule": "CC(=O)N1CCC(Nc2cc(C(=O)NC[C@H](O)CN3CCCc4ccccc4C3)ncn2)CC1 [compound 50]",
    "targetOfAssay": "symmetric di-methyl arginine in Z-138 cells",
    "measuredAttribute": "pEC50",
    "result": "< 6.00"
  },
  {
    "molecule": "CC(=O)N1CCC(Nc2cc(C(=O)NC[C@H](O)CN3CCCCc4ccccc43)ncn2)CC1 [compound 47]",
    "targetOfAssay": "symmetric di-methyl arginine in Z-138 cells",
    "measuredAttribute": "pEC50",
    "result": "< 6.00"
  },
  {
    "molecule": "O=C(COc1cccc2cccnc12)NCC(O)CN1Cc2ccccc2C1 (centres unmarked) [compound 19]",
    "targetOfAssay": "symmetric di-methyl arginine in Z-138 cells",
    "measuredAttribute": "pEC50",
    "result": "5.00 to 6.00"
  },
  {
    "molecule": "CS(=O)(=O)c1ccccc1OCC(=O)NCC(O)CN1Cc2ccccc2C1 (centres unmarked) [compound 12]",
    "targetOfAssay": "symmetric di-methyl arginine in Z-138 cells",
    "measuredAttribute": "pEC50",
    "result": "6.00 to 7.00"
  },
  {
    "molecule": "O=C(NCC(O)CN1Cc2ccccc2C1)c1cccc(-c2ccccn2)c1 (centres unmarked) [compound 13]",
    "targetOfAssay": "symmetric di-methyl arginine in Z-138 cells",
    "measuredAttribute": "pEC50",
    "result": "5.00 to 6.00"
  },
  {
    "molecule": "CC(C)(C)OC(=O)Nc1cccc(C(=O)NCC(O)CN2Cc3ccccc3C2)c1 (centres unmarked) [compound 11]",
    "targetOfAssay": "symmetric di-methyl arginine in Z-138 cells",
    "measuredAttribute": "pEC50",
    "result": "5.00 to 6.00"
  },
  {
    "molecule": "Cc1nc(NC2COC2)cc(C(=O)NC[C@H](O)CN2Cc3ccccc3C2)n1 [compound 35]",
    "targetOfAssay": "symmetric di-methyl arginine in Z-138 cells",
    "measuredAttribute": "pEC50",
    "result": "< 6.00"
  },
  {
    "molecule": "O=C(NC[C@H](O)CN1CCCCc2ccccc21)c1cc(NC2COC2)ncn1 [compound 45]",
    "targetOfAssay": "symmetric di-methyl arginine in Z-138 cells",
    "measuredAttribute": "pEC50",
    "result": "< 6.00"
  },
  {
    "molecule": "O=C(NC[C@H](O)CN1Cc2ccccc2C1)c1cc(NC2COC2)nc(N2CCOCC2)n1 [compound 38]",
    "targetOfAssay": "symmetric di-methyl arginine in Z-138 cells",
    "measuredAttribute": "pEC50",
    "result": "> 7.00"
  },
  {
    "molecule": "C[C@@H](Oc1cccc2cccnc12)C(=O)NC[C@H](O)CN1Cc2ccccc2C1 [compound 5]",
    "targetOfAssay": "symmetric di-methyl arginine in Z-138 cells",
    "measuredAttribute": "pEC50",
    "result": "6.00 to 7.00"
  }
]
